- test.target: human α1H T-type channels (Homo sapiens, UniProt O95180)
- Construct: expressed in transfected cells; host or cells: HEK 293
- Sequence (O95180 whole entry): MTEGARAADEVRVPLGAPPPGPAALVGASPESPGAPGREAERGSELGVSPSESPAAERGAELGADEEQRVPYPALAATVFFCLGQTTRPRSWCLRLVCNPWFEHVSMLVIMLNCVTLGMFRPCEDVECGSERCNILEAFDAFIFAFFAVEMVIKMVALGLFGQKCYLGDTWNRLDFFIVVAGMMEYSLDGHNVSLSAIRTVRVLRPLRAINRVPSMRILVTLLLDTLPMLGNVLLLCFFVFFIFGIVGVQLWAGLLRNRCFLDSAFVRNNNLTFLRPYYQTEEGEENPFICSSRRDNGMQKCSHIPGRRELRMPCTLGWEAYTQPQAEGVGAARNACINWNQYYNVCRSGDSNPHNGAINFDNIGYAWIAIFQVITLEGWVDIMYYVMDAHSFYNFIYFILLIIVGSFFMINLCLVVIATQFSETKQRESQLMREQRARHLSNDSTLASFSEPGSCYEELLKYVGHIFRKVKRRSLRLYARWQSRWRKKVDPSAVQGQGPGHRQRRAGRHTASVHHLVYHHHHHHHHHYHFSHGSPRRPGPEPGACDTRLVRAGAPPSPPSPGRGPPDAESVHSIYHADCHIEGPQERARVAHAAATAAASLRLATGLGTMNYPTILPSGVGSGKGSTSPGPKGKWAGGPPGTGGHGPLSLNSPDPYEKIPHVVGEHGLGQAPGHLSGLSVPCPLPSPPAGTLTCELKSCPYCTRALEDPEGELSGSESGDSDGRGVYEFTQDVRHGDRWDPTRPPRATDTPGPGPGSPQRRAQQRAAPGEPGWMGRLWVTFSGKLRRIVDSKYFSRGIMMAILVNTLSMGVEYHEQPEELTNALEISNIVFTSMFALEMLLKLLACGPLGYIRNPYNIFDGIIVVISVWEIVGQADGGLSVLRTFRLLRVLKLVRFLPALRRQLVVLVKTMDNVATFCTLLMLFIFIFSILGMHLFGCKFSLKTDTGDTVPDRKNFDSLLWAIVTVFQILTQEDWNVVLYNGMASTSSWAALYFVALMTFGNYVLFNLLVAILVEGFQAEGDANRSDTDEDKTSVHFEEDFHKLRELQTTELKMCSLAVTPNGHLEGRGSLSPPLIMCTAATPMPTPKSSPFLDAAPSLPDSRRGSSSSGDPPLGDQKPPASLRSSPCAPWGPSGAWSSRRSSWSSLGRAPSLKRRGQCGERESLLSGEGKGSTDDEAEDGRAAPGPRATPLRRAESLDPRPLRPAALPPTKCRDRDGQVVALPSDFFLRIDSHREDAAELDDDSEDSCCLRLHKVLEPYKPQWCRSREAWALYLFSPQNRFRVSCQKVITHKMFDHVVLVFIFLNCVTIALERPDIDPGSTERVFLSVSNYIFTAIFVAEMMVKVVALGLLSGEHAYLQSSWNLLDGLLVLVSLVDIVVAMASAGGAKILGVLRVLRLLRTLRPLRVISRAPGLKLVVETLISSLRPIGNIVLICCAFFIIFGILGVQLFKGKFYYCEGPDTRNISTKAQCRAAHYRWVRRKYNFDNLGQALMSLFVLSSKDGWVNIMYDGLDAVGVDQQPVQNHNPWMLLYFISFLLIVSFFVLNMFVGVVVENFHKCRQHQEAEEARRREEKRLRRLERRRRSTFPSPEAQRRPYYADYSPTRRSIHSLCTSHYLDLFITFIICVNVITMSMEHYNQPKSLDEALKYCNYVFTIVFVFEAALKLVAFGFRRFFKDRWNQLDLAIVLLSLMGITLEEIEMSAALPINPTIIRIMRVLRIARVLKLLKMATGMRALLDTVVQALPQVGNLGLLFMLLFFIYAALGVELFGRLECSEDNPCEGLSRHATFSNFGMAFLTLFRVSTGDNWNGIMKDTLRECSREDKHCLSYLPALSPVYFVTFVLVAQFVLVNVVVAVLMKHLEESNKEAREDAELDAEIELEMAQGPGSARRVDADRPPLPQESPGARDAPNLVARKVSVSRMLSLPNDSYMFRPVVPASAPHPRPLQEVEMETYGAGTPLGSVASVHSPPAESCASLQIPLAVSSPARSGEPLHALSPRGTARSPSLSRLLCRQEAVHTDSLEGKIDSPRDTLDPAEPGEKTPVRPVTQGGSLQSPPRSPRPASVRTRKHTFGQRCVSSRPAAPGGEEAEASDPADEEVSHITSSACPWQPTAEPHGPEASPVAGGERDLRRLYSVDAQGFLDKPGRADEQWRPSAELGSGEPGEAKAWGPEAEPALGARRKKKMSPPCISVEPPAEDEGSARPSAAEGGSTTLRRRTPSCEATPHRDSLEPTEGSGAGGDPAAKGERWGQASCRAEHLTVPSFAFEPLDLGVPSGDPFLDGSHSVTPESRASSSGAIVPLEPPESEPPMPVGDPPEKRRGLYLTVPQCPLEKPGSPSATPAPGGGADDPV
- experiment: T-type calcium channel block, whole cell patch clamp in HEK cells (α1H)
- Format: cell-based
- applied.conditions: HEK cells, patch clamp, mainly non-inactivated protocol; values above 10 μM shown as 10 μM; read-out: T-type Calcium Channel Block α1H IC50
quantity.kind: IC50 (nM)

- entry.smiles: "CN(CCN1CCC(CNC(=O)c2cc(F)cc(C(F)(F)F)c2)CC1)C(=O)NC1CCCCC1"
  output.unit: "nM"
  IC50: 770

P. CC(C)(NC(=O)CN1CCC(CNC(=O)c2cccc(Br)c2)CC1)C(F)(F)F
Q. O=C(NCC1CCN(C2CN(C(=O)c3cccc(Br)c3)C2)CC1)c1cc(F)cc(Cl)c1
R. O=C(NCC1CCN(CCNC(=O)C2(C(F)(F)F)CCC2)CC1)c1cc(C(F)(F)F)cc(C(F)(F)F)c1
input: Sort entries by IC50 from minimum to maximum value. As an answer, provide the labels arranged in the order called for.
output: P, R, Q
